System: engraftment arrhythmia (EA)
EXPERIMENTAL PARAMETERS: Table 1; swine
ASSAY METRIC: Result: HR effect

- CCN(CC)CC(=O)Nc1c(C)cccc1C: Modest HR effect
- CCCCc1oc2ccccc2c1C(=O)c1cc(I)c(OCCN(CC)CC)c(I)c1: Modest HR effect

Value source: patent US20230077983A1
